// data source = patent US20260242393A1

# ASSAYED_TARGET: PDE4B2 (Homo sapiens, UniProt Q07343)
# Construct: purchased BPS bioscience
# Sequence (Q07343 1-564 isoform Q07343-2): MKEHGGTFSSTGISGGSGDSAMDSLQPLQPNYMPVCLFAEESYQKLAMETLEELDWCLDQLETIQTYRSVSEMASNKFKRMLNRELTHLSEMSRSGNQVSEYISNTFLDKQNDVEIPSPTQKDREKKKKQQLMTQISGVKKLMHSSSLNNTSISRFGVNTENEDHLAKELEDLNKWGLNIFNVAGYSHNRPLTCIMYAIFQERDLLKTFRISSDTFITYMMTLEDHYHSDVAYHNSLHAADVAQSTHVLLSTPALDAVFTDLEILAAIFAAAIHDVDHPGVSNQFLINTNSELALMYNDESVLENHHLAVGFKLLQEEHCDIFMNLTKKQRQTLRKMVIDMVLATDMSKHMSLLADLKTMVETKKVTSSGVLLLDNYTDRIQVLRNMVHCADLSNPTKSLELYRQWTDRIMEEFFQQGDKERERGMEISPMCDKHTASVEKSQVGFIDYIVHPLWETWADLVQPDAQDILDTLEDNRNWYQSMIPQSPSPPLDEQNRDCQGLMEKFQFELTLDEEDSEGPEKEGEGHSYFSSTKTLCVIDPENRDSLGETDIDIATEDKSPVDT
# EXPERIMENT_DESCRIPTION: In vitro PDE4B2 enzyme inhibitory activity (AMP-Glo)
# Format: biochemical
# CONDITION_LABEL: PDE4B2 enzyme inhibition; read-out: PDE4B2 IC50
Listing: IC50 of selected molecules

Worked cases, IC50 given:
{"MOLECULE": "COC1(c2ccc(N3CCCC3)cc2)CN(c2nc3c(c(NC4(CO)CCC4)n2)[S+]([O-])CC3)C1 (racemic) [Compound 107]", "IC50": "≤ 2 nM"}
{"MOLECULE": "[O-][S+]1CCc2nc(N3CC(O)(c4ccc(Cl)c(F)c4)C3)nc(NC3(CO)CCC3)c21 (racemic) [Compound 80]", "IC50": "2 to 5 nM"}
{"MOLECULE": "COc1cc(C2(O)CN(c3nc4c(c(NC5(CO)CCC5)n3)[S+]([O-])CC4)C2)ccc1Cl (racemic) [Compound 3]", "IC50": "≤ 2 nM"}
{"MOLECULE": "[O-][S+]1CCc2nc(N3CC(O)(c4ccc(Cl)cc4)C3)nc(NC3(CO)CCC3)c21 (racemic) [Compound 1]", "IC50": "2 to 5 nM"}
{"MOLECULE": "[2H]C([2H])([2H])OC1(c2ccc(Cl)cc2)CN(c2nc3c(c(NC4(CO)CCC4)n2)[S+]([O-])CC3)C1 (racemic) [Compound 92]", "IC50": "≤ 2 nM"}
{"MOLECULE": "COC1(c2ccc(Cl)c(F)c2)CN(c2nc3c(c(NC4(CO)CCC4)n2)[S+]([O-])CC3)C1 (racemic) [Compound 82]", "IC50": "≤ 2 nM"}
{"MOLECULE": "COc1ccc(C2(OC)CN(c3nc4c(c(NC5(CO)CCC5)n3)[S+]([O-])CC4)C2)cc1 (racemic) [Compound 100]", "IC50": "≤ 2 nM"}
{"MOLECULE": "[O-][S+]1CCc2nc(N3Cc4ccc(C(F)F)cc4C3)nc(NC3(CO)CCC3)c21 (racemic) [Compound 91]", "IC50": "2 to 5 nM"}
{"MOLECULE": "[O-][S+]1CCc2nc(N3Cc4ccc(Cl)cc4C3)nc(NC3CCOCC3)c21 (racemic) [Compound 85]", "IC50": "≤ 2 nM"}
{"MOLECULE": "COc1ccc(C2(OC)CN(c3nc4c(c(NC5CCOCC5)n3)[S+]([O-])CC4)C2)cc1 (racemic) [Compound 108]", "IC50": "≤ 2 nM"}

Looking up COc1ccc(C2(O)CN(c3nc4c(c(NC5(CO)CCC5)n3)[S+]([O-])CC4)C2)cc1Cl (racemic) [Compound 4] , I found its IC50 recorded as 2 to 5 nM

Entry [O-][S+]1CCc2nc(N3CC(O)(c4ccc(C(F)(F)F)cc4)C3)nc(NC3(CO)CCC3)c21 (racemic) [Compound 7] , IC50 reported as 2 to 5 nM

Per the records, this molecule ( COC1(c2ccc(Cl)cc2)CN(c2nc3c(c(NC4(CO)CCC4)n2)[S+]([O-])CC3)C1 (racemic) [Compound 83] ) has IC50 equal to ≤ 2 nM

Per the record, [O-][S+]1CCc2nc(N3CC=C(c4ccc(OC(F)F)cc4)C3)nc(NC3(CO)CCC3)c21 (racemic) [Compound 14] has IC50 of 2 to 5 nM
